assay: drug combination growth inhibition, ovarian cancer – cell-based, oncology-focused library, rucaparib conditional, profiling panel (AID 1508598)
condition.notes: patient-derived ovarian cancer cells, CellTiter-Glo viability, 144 h; at 1.25 µM; OCI-C5x cells; with rucaparib 10 µM; 100% = cells with rucaparib alone
The source made the active and inactive calls.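 Rule for the calls: active = normalized viability below 100% at a tested concentration; inactive = the rest.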
Allowed answers: t (active), f (inactive)

Some entries whose results are on file:
Cc1ccc(C(=O)N(CCCN)[C@@H](c2nc3cc(Cl)ccc3c(=O)n2Cc2ccccc2)C(C)C)cc1 : t
CC(=O)c1c(C)c2cnc(Nc3ccc(N4CCNCC4)cn3)nc2n(C2CCCC2)c1=O : f
O=S(=O)(O)CCSSCCS(=O)(=O)O : f
Nc1ccccc1NC(=O)c1ccc(CNc2nccc(-c3cccnc3)n2)cc1 : t
O=C(c1cc(Cc2n[nH]c(=O)c3ccccc23)ccc1F)N1CCN(C(=O)C2CC2)CC1 : f

Assay result, entry `CC[C@@H]1C(=O)N(C)c2cnc(Nc3ccc(C(=O)NC4CCN(C)CC4)cc3OC)nc2N1C1CCCC1` — outcome?
t

Dear all, I need the recorded test outcome for `COc1cc(Nc2nc3ccccc3nc2NS(=O)(=O)c2ccc(NC(=O)c3ccc(C)c(OC)c3)cc2)cc(OC)c1` , thank you.
f

Per the assay record, what outcome was assigned to `O=C(Cc1ccc(-c2ccc(OCCN3CCOCC3)cc2)cn1)NCc1ccccc1` ?
t

###

assay: drug combination growth inhibition, ovarian cancer – cell-based, oncology-focused library, rucaparib conditional, profiling panel (AID 1508598)
condition.notes: patient-derived ovarian cancer cells, CellTiter-Glo viability, 144 h; at 0.0195 µM; OCI-C5x cells; with rucaparib 10 µM; stronger effect = lower value; 100% = cells with rucaparib alone
The source made the active and inactive calls.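 The calls were made as follows: active = normalized viability below 100% at a tested concentration; inactive = the rest.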
Listing of recorded viability by entry.

C=CC(=O)Nc1cccc(Oc2nc(Nc3ccc(N4CCN(C)CC4)cc3OC)ncc2Cl)c1 : 115% (inactive)

Tell me its viability given `Cc1cn(-c2cc(NC(=O)c3ccc(C)c(Nc4nccc(-c5cccnc5)n4)c3)cc(C(F)(F)F)c2)cn1` as the entry.
105% (inactive)

Respond only with viability recorded for `COc1cc2nccc(Oc3ccc(NC(=O)C4(C(=O)Nc5ccc(F)cc5)CC4)cc3)c2cc1OC`
118% (inactive)

Return the recorded viability value; entry: `CCCS(=O)(=O)Nc1ccc(F)c(C(=O)c2c[nH]c3ncc(-c4ccc(Cl)cc4)cc23)c1F`
107% (inactive)

###

assay: viability loss in pontine glioma line – cell-based, SU-DIPG-XXV, MIPE5.0, CellTiter-Glo, qHTS, dose response (AID 1347065);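 note: cells exposed to compound for 48 hours before ATP readout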
condition.notes: CellTiter-Glo ATP luminescence
Records with an inconclusive call do not appear. Active and inactive are the calls of the source. No cut-off is given here; in the data, nearly all actives have AC50 up to about 26 µM.
Choose the fitting class; nothing outside active, inactive is accepted.

Consider the following illustrative entries.
Nc1ncnc2c1c(-c1cccc(OCc3ccccc3)c1)cn2C1CC(CN2CCC2)C1 (centres undefined) : active
COc1ccc(/C=C\c2cc(OC)c(OC)c(OC)c2)cc1O : active
CC(=O)[C@]1(N)Cc2c(O)c3c(c(O)c2[C@@H](O[C@H]2C[C@H](O)[C@H](O)CO2)C1)C(=O)c1ccccc1C3=O : active
CCN(CCO)CCCOc1ccc2c(Nc3cc(CC(=O)Nc4cccc(F)c4)[nH]n3)ncnc2c1 : active
CC#CCn1c(N2CCC[C@@H](N)C2)nc2c1c(=O)n(Cc1nc(C)c3ccccc3n1)c(=O)n2C : inactive

From here, focus on the item given below.
Please state the recorded outcome for this compound: C[C@H](CCC(=O)O)[C@H]1CCC2C3C[C@H](O)[C@@H]4C[C@H](O)CC[C@]4(C)C3CC[C@@]21C (some centres undefined)
inactive

###

assay: viability loss in pontine glioma line – cell-based, SU-DIPG-XXV, MIPE5.0, CellTiter-Glo, qHTS, dose response (AID 1347065);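 note: cells exposed to compound for 48 hours before ATP readout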
condition.notes: CellTiter-Glo ATP luminescence
Inconclusive results are not listed. Activity calls are given as the source filed them. No cut-off is given here; in the data, nearly all actives have AC50 up to about 26 µM.
Field 'call' accepts y (active), n (inactive)

Consider the following illustrative entries.
C[C@@H]1COCCN1c1cc(-c2ccnn2C)c2ccnc(-c3ccn[nH]3)c2n1 : y
CN(C)c1ccc2cc(C(=O)N[C@@H](CCCN=C(N)CCl)C(=O)NCc3ccccc3)ccc2c1 : y

// param item: `O=S(=O)(O)c1ccc2cc(N=Nc3cc(S(=O)(=O)O)c4cccnc4c3O)ccc2c1` ; yields the recorded call
n

# fetch the recorded call for C=C1C(=O)[C@@]23C(CC[C@@H]1[C@H]2O)[C@@]12CO[C@]3(O)[C@@H](O)[C@@H]1C(C)(C)CC[C@@H]2O (stereo partly specified) here
y

Please share the test call associated with `COC(=O)N1CC2(CC2)C[C@H](C(=O)NO)[C@H]1C(=O)N1CCN(c2ccccc2)CC1` .
n

What did this assay record as the result for `CCNC1(C(N)=O)CCN(c2ncnc3c2nc(-c2ccccc2Cl)n3-c2ccc(Cl)cc2)CC1` ?
y

Assay result, entry `C[C@H](NC(=O)/C(C#N)=C/c1cccc(Br)n1)c1ccccc1` — outcome?
y

What is the recorded call for this molecule in the test? `NS(=O)(=O)Oc1ccc2c3c(c(=O)oc2c1)CCCCC3`
n

What classification did `COc1ccc(Cl)c(Nc2nc3ccccc3nc2NS(=O)(=O)c2cccc(NC(=O)C(C)(C)N)c2)c1` end up with in this test?
y

Outcome? `CO[C@H]1/C=C/O[C@@]2(C)Oc3c(C)c(O)c4c(O)c(c5c(nc6cc(C)ccn65)c4c3C2=O)NC(=O)/C(C)=C\C=C\[C@H](C)[C@H](O)[C@@H](C)[C@@H](O)[C@@H](C)[C@H](OC(C)=O)[C@@H]1C`
y

###

# inhibition per record follows
assay: growth inhibition, single agents and combos, LFS_MB_1R, cell-based, cisplatin or BGB combos, synergistic combos for chromothripsis tumors (AID 1671452);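 note: cells exposed for 96 hours before readout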
condition.notes: LFS_MB_1R medulloblastoma cells, measured here: combination with cisplatin, at 0.5 µM, stronger effect = higher value
All answers are understood in %, so give the number only.

Example entries begin here.
Nc1ncnc2c1c(-c1cnc3[nH]ccc3c1)nn2C1CCCC1 : -26.5
CN(C)CCN1C(=O)c2cccc3cc(N)cc(c23)C1=O : -45
Cc1ccc2nc(NCCN)c3ncc(C)n3c2c1 : -5.04
CN[C@@H]1CN(c2ccc3c(=O)c(C(=O)O)cn(-c4nccs4)c3n2)C[C@H]1OC : 47.4
COc1ccc(-n2c(SCCCN3C(=O)c4cccc5cccc(c45)C3=O)nnc2-c2ccncc2)cc1 : -19.9

Identify measured inhibition corresponding to `CC(=O)[C@]1(N)Cc2c(O)c3c(c(O)c2[C@@H](O[C@H]2C[C@H](O)[C@H](O)CO2)C1)C(=O)c1ccccc1C3=O`
-2.7

Identify the reported inhibition for the following entry. `O=c1cc(N2CCOCC2)oc2c1ccc1ccccc12`
-5.09

Specify measured inhibition for `O=C(CCCCCCNC(=O)c1cnc(N(c2ccccc2)c2ccccc2Cl)nc1)NO` .
-15.4

Tell me its inhibition given `CC(C)OC(=O)[C@H](C)N[P@](=O)(OC[C@H]1O[C@@H](n2ccc(=O)[nH]c2=O)[C@](C)(F)[C@@H]1O)Oc1ccccc1` as the entry.
-13.4

Look up and report measured inhibition for this entry: NC1CCC(N[C@@H]2C[C@H]2c2ccccc2)CC1 (some centres undefined)
-41.7

Please indicate inhibition recorded for `O=C(COc1cccc2c(=O)[nH]ccc12)c1ccccc1`
4.91

Input `COc1cc(C=O)c([N+](=O)[O-])cc1OC` , output reported inhibition.
-40

Provide inhibition value for the following compound: `NC(=O)c1nc(F)c[nH]c1=O`
-16.3

Look up and state reported inhibition for `CO[C@H]1/C=C/O[C@@]2(C)Oc3c(C)c(O)c4c(O)c(c(/C=N\N5CCN(C6CCCC6)CC5)c(O)c4c3C2=O)NC(=O)/C(C)=C\C=C\[C@H](C)[C@H](O)[C@@H](C)[C@@H](O)[C@@H](C)[C@H](OC(C)=O)[C@@H]1C`
-21.5

Give the reported inhibition for this compound. `N=C1CCCN1Cc1[nH]c(=O)[nH]c(=O)c1Cl`
-12.6

###

assay: viability loss with induced miR-34 in A549 – imaging, A549 dox-inducible miR-34, nuclei and caspase counts, primary screen (AID 1347080)
condition.notes: A549 miR-34 inducible, Hoechst nuclei count, 48 h; stronger effect = lower value; cell number ratio, induced over uninduced
Response field label takes YES when fold change is strictly below 1 and NO in all other cases.

N[C@H](C(=O)O)c1ccc(C(=O)O)c(O)c1 : YES

Now examine the next entry.
Just wondering, is fold change of `Cc1c(F)cc(C(=O)NC2CC2)cc1-c1ccc(C(=O)NCC(C)(C)C)cn1` below 1?
YES

###

assay: MELAS cybrid and Rieske KO viability enhancers – cell-based, MELAS cybrids, Rieske KO mouse fibroblasts, CellTiter-Glo, primary screen (AID 1508586);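 note: z relative to plate mean and SD of compound and empty wells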
condition.notes: MELAS cybrid survival, low glucose, CellTiter-Glo 48 h
Active and inactive are the calls of the source.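 Rule for the calls: active = mean z-score across replicates of 1.96 or higher in either the MELAS or the Rieske mutant cell line; inactive = the rest.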
Your answer must be one of the following: true (1) = active, false (0) = inactive

Worked cases, answers included:
CC(N)C1CCC(C(=O)Nc2ccncc2)CC1 (stereo not drawn) : false (0)
CNC(=O)CN1CCC(Oc2cc3c(Nc4cccc(Cl)c4F)ncnc3cc2OC)CC1 : false (0)
CN(C)c1cc(NC(=O)CNC(C)(C)C)c(O)c2c1C[C@H]1C[C@H]3[C@H](N(C)C)C(=O)C(C(N)=O)=C(O)[C@@]3(O)C(=O)C1=C2O : false (0)
NC1(Cc2ccc(Cl)cc2)CCN(c2ncnc3[nH]ccc23)CC1 : false (0)
CN(C)C(=O)c1cc2cnc(Nc3ccc(N4CCNCC4)cn3)nc2n1C1CCCC1 : false (0)

Give the logged outcome of this assay for the following compound: `CC(C)c1cc(-c2n[nH]c(=O)n2-c2ccc3c(ccn3C)c2)c(O)cc1O`
true (1)

Fill in: this test's call for `CC(=O)Nc1cccc(-n2c(=O)n(C3CC3)c(=O)c3c(Nc4ccc(I)cc4F)n(C)c(=O)c(C)c32)c1` is ___
false (0)

Given O=C1C(CCC(O)c2ccc(F)cc2)C(c2ccc(O)cc2)N1c1ccc(F)cc1 (stereo not drawn) , state the outcome it received in this test.
false (0)

Outcome logged for `COc1ccc(-n2c(SCCCN3C(=O)c4cccc5cccc(c45)C3=O)nnc2-c2ccncc2)cc1` in this assay:
false (0)

Status in this test for `COc1cc(NC(=O)c2ccccn2)ccc1Cl` ?
false (0)

Entry `Cc1cc(OCc2nnc(SC3CCCC3)n2-c2cccnc2)ccc1-c1ccc(S(C)(=O)=O)cc1` : call = ?
false (0)

Assay outcome for `CN(C)c1ccc(C(=O)NCCCCCCC(=O)NO)cc1` : what was it?
false (0)

In this assay, the call recorded for `CC(C)CN(C[C@@H](O)[C@H](Cc1ccccc1)NC(=O)O[C@H]1CCOC1)S(=O)(=O)c1ccc(N)cc1` was what?
false (0)

Name the outcome recorded for `CN(NC(=O)CC(=O)NN(C)C(=S)c1ccccc1)C(=S)c1ccccc1` in the assay.
true (1)

Test call for this compound, please: `Nc1cccc(-c2cc3c(Oc4cccc(O)c4)ncnc3[nH]2)c1`
false (0)

Which outcome did this test record for the compound O=C1CC(c2ccc(O)cc2)Oc2cc(O)cc(O)c21 (stereo not drawn) ?
false (0)

What classification did C[N+]1(C)[C@@H]2CC(OC(=O)C(O)(c3cccs3)c3cccs3)C[C@H]1[C@@H]1O[C@@H]12 (stereo partly drawn) end up with in this test?
false (0)

Answer briefly: the call reported for `CN(C)CCN1C(=O)c2cccc3cc(N)cc(c23)C1=O` in this assay.
false (0)

Recorded test outcome, item `N#CC1(c2ccc(NC(=O)c3cccnc3NCc3ccncc3)cc2)CCCC1`
false (0)

Recorded test call requested for `Nc1ccc2ncnc(NCCc3ccc(Oc4ccccc4)cc3)c2c1`
false (0)

Tell me the assay call for `O=C(NCCCNc1nc(Nc2cccc(NC(=O)N3CCCC3)c2)ncc1I)c1cccs1` please.
false (0)

Hello, I am checking results. What call was entered for `O=c1cc(N2CCOCC2)oc2c(-c3cccc4c3sc3ccccc34)cccc12` ?
false (0)

In this assay, the call recorded for `Cc1c(F)cc(C(=O)NC2CC2)cc1-c1ccc(C(=O)NCC(C)(C)C)cn1` was what?
false (0)

Which result was noted for this compound in the test: `C=CC(=O)Nc1cccc(Nc2nc(Nc3ccc(NC4CN(CCF)C4)cc3OC)ncc2C(F)(F)F)c1`
false (0)

// outcome(item) with item = `O=C(NCCS(=O)(=O)c1ccc(C(F)(F)F)cn1)c1ccc(Cl)cc1`
false (0)

Name the outcome recorded for `Cc1nc(N)sc1-c1ccnc(Nc2ccc(N3CCOCC3)cc2)n1` in the assay.
false (0)

Write down the call the test reported for this compound. Item: `CCN1CCN(Cc2ccc(Nc3ncc(F)c(-c4cc(F)c5nc(C)n(C(C)C)c5c4)n3)nc2)CC1`
true (1)

What did the test return for `Nc1cc(C(F)(F)F)c(-c2cc(N3CCOCC3)nc(N3CCOCC3)n2)cn1` ?
true (1)
